Recorded measurements of MIC50, one per entry
# System: Streptococcus pneumoniae
# test_summary: Antimicrobial activity against Streptococcus pneumoniae serotype 6C by broth microdilution method
# Assay type: functional
Entry rule: numbers only, all in µg/mL.

Some solved entries appear below for comparison.
INSERT INTO assay_data (compound, value_reported) VALUES
  ('CC(=O)NC[C@H]1CN(c2ccc(N3CCOCC3)c(F)c2)C(=O)O1 [LINEZOLID]', 1),
  ('CO/N=C(\C(=O)N[C@@H]1C(=O)N2C(C(=O)O)=C(COC(N)=O)CS[C@H]12)c1ccco1 [CEFUROXIME]', 2),
  ('CCO/N=C(\C(=O)N[C@@H]1C(=O)N2C(C(=O)[O-])=C(Sc3nc(-c4cc[n+](C)cc4)cs3)CS[C@H]12)c1nsc(NP(=O)(O)O)n1 [CEFTAROLINE FOSAMIL]', 0.015);

Entry under review: CO/N=C(\C(=O)N[C@@H]1C(=O)N2C(C(=O)O)=C(CSc3nc(=O)c(O)nn3C)CS[C@H]12)c1csc(N)n1 [CEFTRIAXONE] . Reported MIC50?
0.25

// repeat for CC1(C)S[C@@H]2[C@H](NC(=O)COc3ccccc3)C(=O)N2[C@H]1C(=O)O [PENICILLIN V] and report
0.5

// repeat for CC1(C)S[C@@H]2[C@H](NC(=O)Cc3ccccc3)C(=O)N2[C@H]1C(=O)O [PENICILLIN G] and report
0.5

// repeat for C[C@H]1COc2c(N3CCN(C)CC3)c(F)cc3c(=O)c(C(=O)O)cn1c23.C[C@H]1COc2c(N3CCN(C)CC3)c(F)cc3c(=O)c(C(=O)O)cn1c23.O [LEVOFLOXACIN] and report
1

Where these numbers come from: ChEMBL document CHEMBL1671689
